- tested_system: Adenylate cyclase type 2 (Homo sapiens)
- experimental_details: Agonist activity at recombinant human AC2 expressed in HEK293 cells assessed as increase in cAMP level measured after 30 mins by LANCE Ultra cAMP Detection kit method
Exercise: for every item that follows, state its recorded pEC50.
Answers are plain numbers, as −log10 of the molar value.

Below are worked cases with known answers.
Cc1ccc([C@H]2OC3(C(=O)c4ccc(C)cc4C3=O)[C@H]3C(=O)N(c4ccccc4Cl)C(=O)[C@@H]23)cc1 (mixture of isomers)
6.52
Cc1ccc([C@H]2OC3(C(=O)c4cccc(Cl)c4C3=O)[C@H]3C(=O)N(c4ccccc4Cl)C(=O)[C@@H]23)cc1 (mixture of isomers)
6.52
O=C1[C@H]2[C@@H](c3ccc(Cl)cc3)OC3(C(=O)c4ccccc4C3=O)[C@H]2C(=O)N1c1ccc(F)cc1
6.28

Give one value of pEC50 per listed molecule.
1. Cc1ccc([C@H]2OC3(C(=O)c4ccccc4C3=O)[C@H]3C(=O)N(C4CCCCC4)C(=O)[C@@H]23)cc1
2. Cc1ccc([C@H]2OC3(C(=O)c4ccccc4C3=O)[C@H]3C(=O)N(c4ccc(F)c(Cl)c4)C(=O)[C@@H]23)cc1
3. O=C1[C@H]2[C@@H](c3ccc(Cl)cc3)OC3(C(=O)c4ccccc4C3=O)[C@H]2C(=O)N1c1cccc(F)c1
4. COc1cc(C)ccc1N1C(=O)[C@H]2[C@@H](c3cccc(C)c3)OC3(C(=O)c4ccccc4C3=O)[C@H]2C1=O
5. COc1ccc(OC)c(N2C(=O)[C@H]3[C@@H](c4ccc(C)cc4)OC4(C(=O)c5ccccc5C4=O)[C@H]3C2=O)c1
6. Cc1cc(C)cc(N2C(=O)[C@H]3[C@@H](c4ccc(Cl)cc4)OC4(C(=O)c5ccccc5C4=O)[C@H]3C2=O)c1
7. CCc1ccc(N2C(=O)[C@H]3[C@@H](c4ccc(Cl)cc4)OC4(C(=O)c5ccccc5C4=O)[C@H]3C2=O)cc1
8. Cc1ccc([C@H]2OC3(C(=O)c4ccccc4C3=O)[C@H]3C(=O)N(c4ccccc4Cl)C(=O)[C@@H]23)cc1

1: 5.89; 2: 6.28; 3: 5.45; 4: 5.22; 5: 5.92; 6: 6.51; 7: 6.37; 8: 6.77

Give one value of pEC50 per listed molecule.
1. Cc1ccc([C@H]2OC3(C(=O)c4ccc(Br)cc4C3=O)[C@H]3C(=O)N(c4ccccc4Cl)C(=O)[C@@H]23)cc1 (some centres undefined)
2. Cc1ccc([C@H]2OC3(C(=O)c4cccc(Br)c4C3=O)[C@H]3C(=O)N(c4ccccc4Cl)C(=O)[C@@H]23)cc1 (mixture of isomers)
3. Cc1ccc([C@H]2OC3(C(=O)c4ccc(F)cc4C3=O)[C@H]3C(=O)N(c4ccccc4Cl)C(=O)[C@@H]23)cc1 (mixture of isomers)

1: 7.05; 2: 4.94; 3: 6.16

====

- tested_system: Adenylate cyclase type 2 (Homo sapiens)
- experimental_details: Agonist activity at recombinant human AC2 expressed in HEK293 cells assessed as increase in cAMP level by measuring cAMP level at 50 uM measured after 30 mins by LANCE Ultra cAMP Detection kit method relative to control
- Format: cell-based
- experimental_setup: filed as agonist
measured_metric: Activity (%)
One number for each entry, in %.

Cc1ccc([C@H]2OC3(C(=O)c4cccc(F)c4C3=O)[C@H]3C(=O)N(c4ccccc4Cl)C(=O)[C@@H]23)cc1 (mixture of isomers)
59.1
Cc1ccc([C@H]2OC3(C(=O)c4ccc(Br)cc4C3=O)[C@H]3C(=O)N(c4ccccc4Cl)C(=O)[C@@H]23)cc1 (stereo partly drawn)
87.8

Please list Activity recorded for the compound Cc1ccc([C@H]2OC3(C(=O)c4ccccc4C3=O)[C@H]3C(=O)N(c4ccc(F)c(Cl)c4)C(=O)[C@@H]23)cc1
103

====

- tested_system: Adenylate cyclase type 2 (Homo sapiens)
- experimental_details: Agonist activity at recombinant human AC2 expressed in HEK293 cells assessed as increase in cAMP level measured after 30 mins by LANCE Ultra cAMP Detection kit method
Exercise: for every item that follows, state its recorded EC50.
Numbers only, in nM.

Cc1ccc([C@H]2OC3(C(=O)c4ccccc4C3=O)[C@H]3C(=O)N(c4ccc(F)cc4)C(=O)[C@@H]23)cc1
1640
COc1cccc([C@H]2OC3(C(=O)c4ccccc4C3=O)[C@H]3C(=O)N(c4ccc(C)cc4)C(=O)[C@@H]23)c1
1600
Cc1ccc([C@H]2OC3(C(=O)c4ccccc4C3=O)[C@H]3C(=O)N(C(C)C)C(=O)[C@@H]23)cc1
7340

Give one value of EC50 per listed molecule.
1. CCOc1ccc([C@H]2OC3(C(=O)c4ccccc4C3=O)[C@H]3C(=O)N(c4ccc(C)cc4)C(=O)[C@@H]23)cc1
2. Cc1ccc([C@H]2OC3(C(=O)c4ccc(Cl)cc4C3=O)[C@H]3C(=O)N(c4ccccc4Cl)C(=O)[C@@H]23)cc1 (mixture of isomers)
3. Cc1ccc([C@H]2OC3(C(=O)c4ccccc4C3=O)[C@H]3C(=O)N(c4ccc(C)c(C)c4)C(=O)[C@@H]23)cc1
4. Cc1ccc([C@H]2OC3(C(=O)c4ccccc4C3=O)[C@H]3C(=O)N(C)C(=O)[C@@H]23)cc1
5. Cc1ccc(N2C(=O)[C@H]3[C@@H](c4cccc(Cl)c4)OC4(C(=O)c5ccccc5C4=O)[C@H]3C2=O)cc1

1. 24800
2. 236
3. 210
4. 3080
5. 5050

====

- tested_system: UniProtKB Q08462
- experimental_details: Agonist activity at recombinant human AC2 expressed in HEK293 cells assessed as increase in cAMP level by measuring cAMP level at 50 uM measured after 30 mins by LANCE Ultra cAMP Detection kit method relative to control
- Type: cell-based
- experimental_setup: filed as agonist
Assign labels as follows, please: condition met for Activity below 80%; condition not met for Activity equal to or exceeding 80%.

is_below(Activity, 80%) for CCOc1ccc([C@H]2OC3(C(=O)c4ccccc4C3=O)[C@H]3C(=O)N(c4ccc(C)cc4)C(=O)[C@@H]23)cc1 ?
condition not met

is_below(Activity, 80%) for O=C1[C@H]2[C@@H](C3CCCCC3)OC3(C(=O)c4ccccc4C3=O)[C@H]2C(=O)N1c1ccccc1Cl ?
condition met

is_below(Activity, 80%) for Cc1ccc([C@H]2OC3(C(=O)c4cccc(Cl)c4C3=O)[C@H]3C(=O)N(c4ccccc4Cl)C(=O)[C@@H]23)cc1 (mixture of isomers) ?
condition not met

is_below(Activity, 80%) for CCc1ccc(N2C(=O)[C@H]3[C@@H](c4ccc(Cl)cc4)OC4(C(=O)c5ccccc5C4=O)[C@H]3C2=O)cc1 ?
condition not met

is_below(Activity, 80%) for CC(C)c1ccc([C@H]2OC3(C(=O)c4ccccc4C3=O)[C@H]3C(=O)N(c4ccc(F)cc4)C(=O)[C@@H]23)cc1 ?
condition not met

====

- tested_system: UniProt Q08462
- experimental_details: Agonist activity at recombinant human AC2 expressed in HEK293 cells assessed as increase in cAMP level by measuring cAMP level at 50 uM measured after 30 mins by LANCE Ultra cAMP Detection kit method relative to control
- Type: cell-based
- experimental_setup: filed as agonist
measured_metric: Activity (%)
One number for each entry, in %.

Give one value of Activity per listed compound.
1. COc1ccc(N2C(=O)[C@H]3[C@@H](c4ccc(C)cc4)OC4(C(=O)c5ccccc5C4=O)[C@H]3C2=O)cc1
2. Cc1ccc([C@H]2OC3(C(=O)c4ccc(C)cc4C3=O)[C@H]3C(=O)N(c4ccccc4Cl)C(=O)[C@@H]23)cc1 (mixture of isomers)
3. O=C1[C@H]2[C@@H](c3ccc(Cl)cc3)OC3(C(=O)c4ccccc4C3=O)[C@H]2C(=O)N1c1ccc(F)cc1

[93.6, 98.1, 100]

====

Exercise: for every item that follows, state its recorded Activity.
- tested_system: Adenylate cyclase type 2 (Homo sapiens, UniProt Q08462)
- Sequence (Q08462 whole entry): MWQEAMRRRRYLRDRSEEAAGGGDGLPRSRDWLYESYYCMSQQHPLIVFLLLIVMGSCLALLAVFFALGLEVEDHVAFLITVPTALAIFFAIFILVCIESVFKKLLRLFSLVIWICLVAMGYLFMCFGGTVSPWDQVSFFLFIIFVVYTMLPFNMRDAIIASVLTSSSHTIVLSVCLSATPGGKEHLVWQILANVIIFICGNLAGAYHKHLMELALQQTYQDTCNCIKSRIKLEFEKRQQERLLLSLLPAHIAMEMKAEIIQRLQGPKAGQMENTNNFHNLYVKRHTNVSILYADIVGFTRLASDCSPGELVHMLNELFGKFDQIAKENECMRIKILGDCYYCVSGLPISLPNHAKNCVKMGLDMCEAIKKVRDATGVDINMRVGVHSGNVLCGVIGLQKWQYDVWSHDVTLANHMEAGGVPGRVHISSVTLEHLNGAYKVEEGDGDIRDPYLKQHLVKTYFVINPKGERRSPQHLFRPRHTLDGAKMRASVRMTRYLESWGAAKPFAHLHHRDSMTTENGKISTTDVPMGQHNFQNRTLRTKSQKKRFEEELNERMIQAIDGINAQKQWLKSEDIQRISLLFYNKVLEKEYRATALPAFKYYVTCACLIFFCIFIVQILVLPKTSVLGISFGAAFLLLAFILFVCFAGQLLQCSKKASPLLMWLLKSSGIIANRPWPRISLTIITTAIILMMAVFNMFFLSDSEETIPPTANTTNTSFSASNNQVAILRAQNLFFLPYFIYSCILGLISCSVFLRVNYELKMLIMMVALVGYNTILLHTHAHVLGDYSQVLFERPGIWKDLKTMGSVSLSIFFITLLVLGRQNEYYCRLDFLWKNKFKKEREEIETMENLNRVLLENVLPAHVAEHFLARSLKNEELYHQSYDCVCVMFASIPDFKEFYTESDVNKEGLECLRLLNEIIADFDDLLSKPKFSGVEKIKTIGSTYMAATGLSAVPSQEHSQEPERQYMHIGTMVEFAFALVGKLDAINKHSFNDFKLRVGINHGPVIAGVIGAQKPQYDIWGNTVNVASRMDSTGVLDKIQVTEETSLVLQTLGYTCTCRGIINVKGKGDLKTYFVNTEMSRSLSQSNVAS
- experimental_details: Agonist activity at recombinant human AC2 expressed in HEK293 cells assessed as increase in cAMP level by measuring cAMP level at 50 uM measured after 30 mins by LANCE Ultra cAMP Detection kit method relative to control
- Assay type: cell-based
Give bare numbers, in %.

Give one value of Activity per listed compound.
1. O=C1[C@H]2[C@@H](c3ccc(-c4ccccc4)cc3)OC3(C(=O)c4ccccc4C3=O)[C@H]2C(=O)N1c1ccccc1Cl
2. Cc1cc(C)cc(N2C(=O)[C@H]3[C@@H](c4ccccc4Cl)OC4(C(=O)c5ccccc5C4=O)[C@H]3C2=O)c1
3. Cc1ccc([C@H]2OC3(C(=O)c4ccccc4C3=O)[C@H]3C(=O)N(C(C)(C)C)C(=O)[C@@H]23)cc1
4. O=C1[C@H]2[C@@H](CCc3ccccc3)OC3(C(=O)c4ccccc4C3=O)[C@H]2C(=O)N1c1ccccc1Cl
5. CCc1ccccc1N1C(=O)[C@H]2[C@@H](c3ccccc3Cl)OC3(C(=O)c4ccccc4C3=O)[C@H]2C1=O

[5.04, 7.14, 31, 32, 20]

Give one value of Activity per listed compound.
1. O=C1[C@H]2[C@@H](C3CC3)OC3(C(=O)c4ccccc4C3=O)[C@H]2C(=O)N1c1ccccc1Cl
2. COc1ccc([C@H]2OC3(C(=O)c4ccccc4C3=O)[C@H]3C(=O)N(c4ccccc4F)C(=O)[C@@H]23)cc1
3. O=C1[C@H]2[C@@H](Cc3ccccc3)OC3(C(=O)c4ccccc4C3=O)[C@H]2C(=O)N1c1ccccc1Cl
4. O=C1[C@H]2[C@@H](c3ccc4ccccc4c3)OC3(C(=O)c4ccccc4C3=O)[C@H]2C(=O)N1c1ccccc1Cl

[0, 0.25, 0, 0]

Give one value of Activity per listed compound.
1. Cc1ccccc1[C@H]1OC2(C(=O)c3ccccc3C2=O)[C@H]2C(=O)N(c3ccccc3Cl)C(=O)[C@@H]12
2. CC[C@H]1OC2(C(=O)c3ccccc3C2=O)[C@H]2C(=O)N(c3ccccc3Cl)C(=O)[C@@H]12
3. Cc1ccc([C@H]2OC3(C(=O)c4ccccc4C3=O)[C@H]3C(=O)N(C4CCC4)C(=O)[C@@H]23)cc1
4. CC(C)[C@H]1OC2(C(=O)c3ccccc3C2=O)[C@H]2C(=O)N(c3ccccc3Cl)C(=O)[C@@H]12

[30.7, 0, 0, 27.2]

Reference source for all entries: ChEMBL document CHEMBL4680207
